B1: SMG5 (parent)
chain: TRKLSPGKKRCKDIKRLLVNFMYL

# Variants of: B1
# measurement_notes: protein stability index of a GFP-peptide fusion (GPS, HEK-293T) (PSI 1-6); higher = more stable;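 note: lentivirally expressed fusions sorted by FACS into six bins by GFP to DsRed ratio, PSI derived from sequencing read proportions per bin multiplied by bin number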
# condition_notes: c terminus: a fixed tail appended
test_readout: protein stability index

INSERT INTO results (sequence_record, val) VALUES
  ('TRKLSPGKKRCKDIKRLLVNFMYP', 2.63),
  ('TRKKSPGKKRCKDIKRLLVNFMYL', 2.07),
  ('TFKLSPGKKRCKDIKRLLVNFMYL', 3.38);

Hi team, please reply with protein stability index for each item in this list.
1. TRKLSPGKKRCKDIKRLLVNFDYL
2. TRKLSPGKKRCKDIKRLLVNFEYL
3. TRKLSPGKCRCKDIKRLLVNFMYL
4. TRKQSPGKKRCKDIKRLLVNFMYL
5. TRKLSPGKKRCKDIKRLLVNFMRL
6. TRKLSPGKKRCKDIKRYLVNFMYL

A)
1: 2.34; 2: 2.45; 3: 2.14; 4: 2.06; 5: 2.05; 6: 2.65

Hi team, please reply with protein stability index for each item in this list.
1. TRKLSPGKKRCKDIKRLHVNFMYL
2. IRKLSPGKKRCKDIKRLLVNFMYL
3. TRKLSPGKKRCKDIKRLLINFMYL
4. TRKLSPGKKRCKDIKRLLVNAMYL
5. TRKLSPGKKRCKDQKRLLVNFMYL
6. TRKNSPGKKRCKDIKRLLVNFMYL
7. TRKLSPGKKRCKDIKRLLVNFCYL
8. TRKCSPGKKRCKDIKRLLVNFMYL

A)
1: 1.6; 2: 1.95; 3: 1.66; 4: 1.76; 5: 1.5; 6: 1.22; 7: 1.75; 8: 2.54

Hi team, please reply with protein stability index for each item in this list.
1. TRKLSPTKKRCKDIKRLLVNFMYL
2. TRKLSPGKKRCKDIKRTLVNFMYL
3. TRKLSPGKKRCKDVKRLLVNFMYL
4. TRKLSPGKKRTKDIKRLLVNFMYL
5. TRKLSPGKKRCKDIKQLLVNFMYL
6. TRKLSPGFKRCKDIKRLLVNFMYL
7. TRKLSPGKKRCKDIKRLLVDFMYL
8. TRKLSPGKKRCKDTKRLLVNFMYL

A)
1: 2.22; 2: 1.9; 3: 2.2; 4: 1.59; 5: 1.27; 6: 4.35; 7: 3.56; 8: 2.05
